Listed next: entries and their corresponding pIC50.
Target: EGFR L858R/T790M (Homo sapiens, UniProt P00533, L858R/T790M)
Construct: purchased Carna Bio
Sequence (P00533 25-1210 T790M/L858R): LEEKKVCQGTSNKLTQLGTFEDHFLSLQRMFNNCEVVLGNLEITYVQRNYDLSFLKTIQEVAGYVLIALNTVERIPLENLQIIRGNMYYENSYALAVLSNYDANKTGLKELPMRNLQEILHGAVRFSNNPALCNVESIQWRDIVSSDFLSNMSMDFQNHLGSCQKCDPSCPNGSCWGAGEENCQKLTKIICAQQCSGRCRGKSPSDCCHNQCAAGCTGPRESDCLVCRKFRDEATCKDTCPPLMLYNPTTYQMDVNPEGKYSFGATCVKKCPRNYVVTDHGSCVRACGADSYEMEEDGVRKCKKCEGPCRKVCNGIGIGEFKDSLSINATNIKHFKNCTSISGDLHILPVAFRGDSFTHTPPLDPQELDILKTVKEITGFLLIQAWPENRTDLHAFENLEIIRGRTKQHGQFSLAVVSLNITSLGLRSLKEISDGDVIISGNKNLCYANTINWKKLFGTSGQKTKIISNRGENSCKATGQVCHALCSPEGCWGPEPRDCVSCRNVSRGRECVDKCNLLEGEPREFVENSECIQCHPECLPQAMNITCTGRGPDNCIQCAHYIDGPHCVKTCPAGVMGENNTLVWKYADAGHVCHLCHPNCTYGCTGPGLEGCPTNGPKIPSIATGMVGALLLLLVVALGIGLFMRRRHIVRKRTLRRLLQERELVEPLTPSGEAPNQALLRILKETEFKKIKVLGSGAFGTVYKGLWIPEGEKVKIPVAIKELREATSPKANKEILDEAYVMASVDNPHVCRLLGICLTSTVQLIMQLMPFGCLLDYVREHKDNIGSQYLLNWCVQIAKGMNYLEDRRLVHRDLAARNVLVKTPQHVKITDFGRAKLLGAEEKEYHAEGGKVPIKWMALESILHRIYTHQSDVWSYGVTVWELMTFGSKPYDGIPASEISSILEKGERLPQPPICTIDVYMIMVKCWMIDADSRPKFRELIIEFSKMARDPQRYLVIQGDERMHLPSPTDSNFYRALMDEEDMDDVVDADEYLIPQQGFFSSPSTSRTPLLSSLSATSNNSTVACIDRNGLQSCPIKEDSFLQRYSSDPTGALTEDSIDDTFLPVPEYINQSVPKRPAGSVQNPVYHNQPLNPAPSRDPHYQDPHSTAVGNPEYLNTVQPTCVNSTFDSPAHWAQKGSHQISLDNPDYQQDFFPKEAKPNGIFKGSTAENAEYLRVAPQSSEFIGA
Method: Inhibition of EGFR L858R/T790M biochemical enzymatic activity (HTRF)
Condition label: EGFR L858R/T790M, 1 mM ATP, 1 h at room temperature, read-out: IC50 @L858R-T790M
Description: Biological Example 1: Inhibition of EGFR WT and Mutant Biochemical Enzymatic Activity The inhibition potency of compounds against these enzymes was assessed using Homogenous Time Resolved Fluorescence approach (HTRF, CisBio. Cat No. 62TKOPEJ). Inhibitory effects of the compounds were determined by measuring the enzymatic activity of EGFR enzyme phosphorylates 1 μM TK Substrate-biotin in the presence of 1 mM adenosine-5′-triphosphate (ATP) and varying concentrations of the test compound. […]
pIC50: −log10 of the molar value.
Parameter measured: pIC50

• Cc1cc2cc(n1)-c1cnn(C)c1OCCN1CC3CCC(C3)(C1)n1c(nc3ccc(N4CCN(C5COC5)CC4)cc31)NC2=O (single isomer, unassigned) [Example B58B] = 8.23
• Cc1cc2cc(n1)-c1cnn(C)c1OCCN1CC3CCC(C3)(C1)n1c(nc3ccc(N4CCN(C(C)C)CC4)cc31)NC2=O (single isomer, unassigned) [Example B57B] = 8.43
